Field: viability, T/C. Provide a value for each of the compounds that follow.
system: 922993-354-T-J3-PDC complex spheroids, viability, % test/control; assay: Anticancer human tumor 922993-354-T-J3-PDC patient-derived endometrial carcinoma cell line growth inhibition [CLK]; details: second compound 0.0316 µM; first compound 0.00949 µM; active compounds read low;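 note: spheroids exposed to the agents for 7 days before readout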
One number for each entry, in %.

C=CC(=O)Nc1cc(Nc2nccc(-c3cn(C)c4ccccc34)n2)c(OC)cc1N(C)CCN(C)C + CN1CCN(c2cc(C(=O)Nc3cc4cc(-c5cnn(C)c5)ccc4cn3)ccn2)CC1 : 101
NC(=O)C(=Cn1cnc(-c2cc(C(F)(F)F)cc(C(F)(F)F)c2)n1)c1cncnc1 + CNC(=O)c1ccc(Nc2nc(OC3CCCC3)c3c(-c4ccc5nc(C)oc5c4)c[nH]c3n2)c(OC)c1 : 120
NC(=O)C(=Cn1cnc(-c2cc(C(F)(F)F)cc(C(F)(F)F)c2)n1)c1cncnc1 + CN1CCN(c2cc(C(=O)Nc3cc4cc(-c5cnn(C)c5)ccc4cn3)ccn2)CC1 : 119
CC(C)CC(NC(=O)C(Cc1ccccc1)NC(=O)c1cnccn1)B(O)O (stereo unspecified) + CN1CCN(c2cc(C(=O)Nc3cc4cc(-c5cnn(C)c5)ccc4cn3)ccn2)CC1 : 32.6

State the recorded viability, T/C for every item in the following list.
1. CC(C)CC(NC(=O)C(Cc1ccccc1)NC(=O)c1cnccn1)B(O)O (stereo unspecified) + CNC(=O)c1ccc(Nc2nc(OC3CCCC3)c3c(-c4ccc5nc(C)oc5c4)c[nH]c3n2)c(OC)c1
2. C=CC(=O)Nc1cc(Nc2nccc(-c3cn(C)c4ccccc34)n2)c(OC)cc1N(C)CCN(C)C + CNC(=O)c1ccc(Nc2nc(OC3CCCC3)c3c(-c4ccc5nc(C)oc5c4)c[nH]c3n2)c(OC)c1

1: 53; 2: 106
